measured-quantity: melting point (°C)

CN(C)Cc1nc(-c2ncn3c2C2CCCN2C(=O)c2c(Cl)cccc2-3)no1 (stereo unspecified) = 261

P = CC(=Nc1ccc(Cl)nn1)N(C)C
Q = Fc1ccc(-c2ncc(Br)cn2)cc1F
Among P and Q , which shows a numerically higher melting point result? Answer format: the label of the selected item.
Q
(Q: 148 °C, P: 73 °C)

---

Listed molecules paired with reported melting point

CN(C)C(=O)c1cn(-c2cc3c(=O)n(NS(C)(=O)=O)c(=O)[nH]c3cc2C(F)(F)F)cn1 = 284 to 286 °C
Nc1nc2ccccc2n[n+]1[O-] = 266 to 268 °C
Cc1c(C(=O)Nc2ccc(N3CCN(C4CCOCC4)CC3)c(C#N)c2)cnn1-c1ccc(F)cc1 = 240 °C
COc1ccc(CNc2nc(CN3CCC(C(=O)O)CC3)nc3oc4c(c23)CCCC4)cc1Cl = 233 to 235 °C
Cn1ncc(C(=O)N2CCOCC2)c1C(=O)Nc1cc2nc(-c3ccccc3)nn2cc1F = 224 to 225 °C
Cc1sc(-c2ccccc2)nc1COc1ccc(COc2ccccc2CC(=O)O)cc1 = 122 to 123 °C

For `Cc1cccc(N2CCN(CCc3ccc(NC(=O)NCCCCl)cc3)CC2)c1` the molecule record lists melting point as 168 °C

So, `c1cc(P(CCP(c2ccncc2)c2ccncc2)c2ccncc2)ccn1` ? Its melting point was 183 to 185 °C

# melting point (molecule: `N#Cc1ccc(C(F)(F)F)cc1NN=Nc1ccccc1` ) is 139 to 141 °C

Measured melting point, `CN(C)c1ncc(-c2ccc(Cl)cc2Cl)c(N)n1` : 151 °C

Entry `CC(C)n1nc(-c2nc(C#N)c(C#N)nc2-c2ccccc2Br)ccc1=O` — recorded melting point = 160 to 161 °C

Reported melting point ( `CCC(=N)NC(=O)Nc1ccc(Cl)cc1` ) = 191 to 192 °C

The molecule CNC(=O)C(Cc1c[nH]c2ccccc12)NC(=O)C(CC(C)C)C(S)CC(=O)OC (centres undefined) showed melting point equal to 73 to 75 °C

Lab book: melting point of `CCN(Cc1ccccc1Oc1ccccc1)c1ccc(C(=O)O)nn1` noted as 70 to 75 °C

The molecule listed as `COc1ccc(-c2ccc(Cl)cc2)c(COc2ccc(-c3nc4cc(C(=O)O)ccc4n3C3CCCCC3)cc2)c1` shows melting point equal to 248 to 249 °C

Documented melting point of `O=c1c2c(Cl)cc(Cl)cc2n(Cc2ccccc2)c(=O)n1Cc1ccccc1F` : 126 to 130 °C

melting point in this record for Oc1ccc([C@H]2c3ccc(OCc4ccccc4)cc3OC[C@H]2c2ccccc2)cc1 (racemic) : 204 to 205 °C

// field: melting point; key: `CCOC(=O)Oc1cc(OC)cc(OC)c1C(=O)C=Cc1ccc(OC)cc1` ; value = 107 °C

Sample `O=C(O)c1cc(Cl)cc2c1NCCO2` ; melting point observed: 209 to 210 °C

---

measured-quantity: melting point

CCC(OC)(c1ccc(OCc2cc3ccccc3[nH]c2=O)c(OC)c1)c1nccs1 (stereo not given) = 170 to 171 °C
O=C(O)Cc1ccccc1Cc1nc2c(F)c(F)cc(F)c2s1 = 124 to 126 °C
CN(C)c1ccc(C(=O)C#Cc2ccncc2)cc1 = 143 to 145 °C
O=[N+]([O-])c1ccc(OCCCCCOc2ccc([N+](=O)[O-])cc2)cc1 = 101 to 102 °C

// melting point value for CC(C)(C)NC(=O)c1nn(-c2ccc(F)cc2F)c2c1CC1CC2C1(C)C (stereo not given) : 168 to 171 °C

---

The entries below come with measured melting point values attached.

Take a look at these entries with their results.
OC1(c2ccc(Cl)cc2)CCN(CCCOc2ccc(F)cc2)CC1 = 134 to 135 °C
CCOc1ccc(NS(=O)(=O)c2ccc(NN=CCCCN3C(=O)c4ccccc4C3=O)cc2)cc1 = 156 to 158 °C
NC1CCOC1c1ncnc2nc[nH]c12 (centres undefined) = 128 to 130 °C
Cc1cc([N+](=O)[O-])ccc1NC(=O)C1=C(O)N(C)S(=O)(=O)c2cscc21 = 186 to 188 °C
COC(=O)c1c(C)c([N+](=O)[O-])cc2nc(OC)c(OC)nc12 = 174 to 176 °C
CCOC(=O)N1CCc2cc(S(=O)(=O)n3cc(-c4ccccc4)[nH]c3=O)ccc21 = 214 to 216 °C
CN(CCN1CCN(Cc2ccc(C(F)(F)F)cc2)CC1)C[C@@]1(C)Cn2cc([N+](=O)[O-])nc2O1 = 102 to 104 °C
CC(C)(C)OC(=O)N1CCC[C@H]1c1nc2c(C(F)(F)F)cccc2c(O)c1C(=O)Nc1nccs1 = 215 °C

Now look at this entry.
melting point recorded for this compound, `CCNC(=O)Nc1nc2cc(-c3ccc(OC)nc3)ccn2n1` , is 230 to 233 °C

---

measured-quantity: melting point (°C)

Cc1c(OCC2=NCCN2)ccc(Br)c1NS(C)(=O)=O = 272
OC1CSC(Oc2ccc(-c3ccnc(F)c3)nc2)C(O)C1O (stereo not given) = 219

---

measured-quantity: melting point

O=C1COC(CCc2ccccc2)CN1 (configuration not stated) = 100 to 102 °C
CCCC(=O)OCOC(=O)C1=C(C)NC(C)=C(C(=O)OC)C1c1cccc(Cl)c1Cl (configuration not stated) = 128 to 129 °C
CCc1c(NC(=O)c2ccc(Br)cc2)ccc2cc(CO)cnc12 = 202 to 204 °C

The molecule listed as O=[N+]([O-])CC(SC(=S)N1CCCC1)c1ccccc1 (configuration not stated) has a reported melting point of 116 to 120 °C

Measured melting point, `CCCCOC(=O)NS(=O)(=O)CCc1cc(OCCCC)nn1Cc1ccc(Cl)cc1Cl` : 108 to 111 °C

Just so you know, measured melting point for `CC(C)(C)OC(=O)Nn1c(=O)cc2n(C3CC3)c3cc(N4CCN(C(=O)OC(C)(C)C)CC4)c(F)cc3n2c1=O` came out at 219 to 220 °C

The reported melting point of the molecule `COC(=O)c1ccc(-c2nc(-c3ccc(OC(F)(F)F)cc3)cs2)cc1` was 138 to 139 °C

Value of measured melting point for the entry `CN(O)C(=O)C1=Cc2cc(OCc3ccccc3)ccc2OC1` : 143 to 146 °C

Consider `O=C(O)CCCNC(=O)c1ccc(Cl)cc1O` . Its measured melting point is 131 to 133 °C

Lab note: `O=C(c1cccs1)c1cnn2c(-c3cccc(-c4ccc(CNCCN5CCOCC5)cc4)c3)ccnc12` gave melting point of 100 to 106 °C

response.value for `O=CCOc1ccc(Cl)cc1` (field: melting point) = 122 to 128 °C

---

Below is a list of entries, each paired with its recorded melting point value.

Answered examples (5):
O=C(Nc1ccccc1)c1ccc(Cn2cnc3ccccc32)cc1 = 214 to 216 °C
Nc1noc(CN2CCC[C@@H](OCc3cc(C(F)(F)F)cc(C(F)(F)F)c3)[C@H]2c2ccccc2)n1 (relative stereo) = 138 to 139 °C
O=C(CCSCCSCCSCCC(=O)Nc1ccc(Nc2ccccc2)cc1)Nc1ccc(Nc2ccccc2)cc1 = 196 to 198 °C
COc1cc(COc2nn(C)cc2C(C)=O)ccc1OCc1nc(-c2ccccc2)oc1C = 170 to 171 °C
CCn1nc(C)sc1=Nc1ccc(N2CCN(c3ccc(OC)cc3)CC2)cc1 = 175 °C

Here is another compound to look at.
Looking up COc1ccc(C2=NN(c3ccc(C4=NNC(=O)CC4C)cc3)C(=O)C3CC=CCC23)cc1Cl (stereo not given) , I see its melting point listed as 198 to 201 °C

---

Measured melting point, listed per entry for reference.

Consider the reported melting point for these compounds:
CN(CCCC(N)=O)Cc1ccc(Cl)cc1 = 62 to 64 °C
COc1ccc2c(=O)c(-c3ccc(C)cc3)coc2c1OC = 135 °C
COCCOc1cc(NS(=O)(=O)c2ccccn2)c2[nH]c(C(=O)O)cc2c1 = 230 to 232 °C
O=C(NCc1cccnc1)Nc1cc(N2CC(c3ccccc3)CC2=O)ccn1 (centres undefined) = 179 to 180 °C
COC(=O)c1cc(-c2c(-c3ccccc3)nn3ccccc23)cn(C)c1=O = 268 to 270 °C

Record summary for `CS(=O)(=O)c1ccc(-c2cc(C=O)cn2-c2ccc(F)cc2)cc1` : reported melting point = 98 to 100 °C

Looking up `Cc1cc2c(s1)CCCC(=O)N2` , I found its melting point recorded as 133 to 135 °C

GET /value?item= `Cc1ccc(S(=O)(=O)Oc2ccc(C(c3ccc(OS(=O)(=O)c4ccc(C)cc4)c([N+](=O)[O-])c3)(C(F)(F)F)C(F)(F)F)cc2[N+](=O)[O-])cc1` &field=melting point returns 206 to 208 °C

The reported value for `COC(=O)c1ccc(CNc2cc(-c3cc4cc(F)c(F)cc4[nH]3)ccc2OC)cc1` in terms of melting point is 168 to 170 °C
